- Study System: human recombinant adrenergic α2A receptor (Homo sapiens, UniProt P08913)
- Construct: expressed in transfected cells; host or cells: insect Sf9 cells
- Sequence (P08913 1-465): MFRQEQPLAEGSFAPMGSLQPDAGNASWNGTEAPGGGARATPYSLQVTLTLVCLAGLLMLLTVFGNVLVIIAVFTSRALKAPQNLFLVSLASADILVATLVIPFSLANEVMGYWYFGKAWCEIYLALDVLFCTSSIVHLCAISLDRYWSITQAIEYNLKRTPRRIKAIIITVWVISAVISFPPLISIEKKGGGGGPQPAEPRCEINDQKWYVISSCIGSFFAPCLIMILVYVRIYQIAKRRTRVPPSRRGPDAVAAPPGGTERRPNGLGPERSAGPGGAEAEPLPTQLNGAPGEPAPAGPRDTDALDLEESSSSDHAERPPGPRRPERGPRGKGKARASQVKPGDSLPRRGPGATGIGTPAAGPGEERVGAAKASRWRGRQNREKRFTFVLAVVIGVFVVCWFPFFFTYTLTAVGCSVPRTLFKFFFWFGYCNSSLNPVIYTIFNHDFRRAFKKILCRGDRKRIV
- Test: Adrenergic α2A radioligand binding ([3H]MK-912)
- Experimental Context: 1 μM; read-out: Adrenergic α2A, inhibition of ligand binding (1 μM)
Rule: inhibition at 1 µM of 20% or more gives condition met; anything lower gives condition not met.

• CN1C2CCC1c1c(n(CCC(=O)N3CCCC3)c3ccc(Cl)cc13)C2 (stereo not drawn) [Compound 5] = condition not met
• COc1ccc(C(C)(O)Cn2c3c(c4cc(C)ccc42)C2CCC(C3)N2C)cc1F (stereo not drawn) [Compound 161] = condition met
• COc1ccc(C(C)(O)Cn2c3c(c4cc(Cl)ccc42)C2CCC(C3)N2C)cc1F (stereo not drawn) [Compound 160] = condition met
• Cc1ccc(CCn2c3c(c4cc(Cl)ccc42)C2CCC(C3)N2C)cc1 (stereo not drawn) [Compound 61] = condition met
• CN1[C@H]2CC[C@@H]1c1c(n(CCc3ccc(F)cc3)c3ccc(F)cc13)C2 [Compound 95] = condition met
• C/C(=C\n1c2c(c3cc(Cl)ccc31)C1CCC(C2)N1C)c1ccc(Cl)cc1 (stereo not drawn) [Compound 125] = condition met
• CN1C2CCC1c1c(n(CC(=O)c3ccc(Cl)cc3)c3ccc(Cl)cc13)C2 (stereo not drawn) [Compound 111] = condition met
• CN1C2CCC1c1c(n(CCc3ccc(C(F)(F)F)nc3)c3ccc(Cl)cc13)C2 (stereo not drawn) [Compound 34] = condition met
• CN1C2CCC1c1c(n(CCc3cncc(Cl)c3)c3ccc(Cl)cc13)C2 (stereo not drawn) [Compound 87] = condition met
• Cc1ccc2c(c1)c1c(n2CCc2ccccc2)CC2CCCC1N2C (stereo not drawn) [Compound 56] = condition met
• Cc1ccc2c(c1)c1c(n2CCc2ccc(C(F)(F)F)nc2)CC2CCC1N2C (stereo not drawn) [Compound 71] = condition met
• CN1C2CCC1c1c(n(CCC(=O)O)c3ccc(Cl)cc13)C2 (stereo not drawn) [Compound 72] = condition not met
• Cc1ccc(CCn2c3c(c4ccccc42)[C@@H]2CC[C@H](C3)N2C)cn1 [Compound 102] = condition not met
• CN1C2CCC1c1c(n(CCC(=O)N3CCNCC3)c3ccc(Cl)cc13)C2 (stereo not drawn) [Compound 9] = condition not met
• CN1C2CCC1c1c(n(CC(=O)N3CCCC3)c3ccc(Cl)cc13)C2 (stereo not drawn) [Compound 60] = condition not met
• Cc1cncc(CCn2c3c(c4cc(Cl)ccc42)C2CCC(C3)N2C)c1 (stereo not drawn) [Compound 89] = condition not met
• Cc1ccc2c(c1)c1c(n2CC(O)c2ccc(C)nc2)CC2CCC1N2C (stereo not drawn) [Compound 91] = condition met
• C/C(=C\n1c2c(c3cc(C)ccc31)C1CCC(C2)N1C)c1ccc(F)cc1 (stereo not drawn) [Compound 124] = condition met
